Where these numbers come from: patent US6753317

Subject Of Test: µ-opioid receptor of the guinea pig ileum (GPI) (guinea pig)
Protocol Summary: cell-based or functional assay
Non-standard residues stand in square brackets, D forms with d. *: point of attachment. des‑NH2‑α‑pyrrolidine‑1‑yl = Dmt (2',6'-dimethyl-L-tyrosine) with the α-amine replaced by pyrrolidine-1-yl, Cc1cc(O)cc(C)c1C[C@@H](C(=O)*)N1CCCC1; des‑NH2‑α‑piperidine‑1‑yl = Dmt (2',6'-dimethyl-L-tyrosine) with the α-amine replaced by piperidine-1-yl, Cc1cc(O)cc(C)c1C[C@@H](C(=O)*)N1CCCCC1; Dmt = Cc1cc(O)cc(C)c1C[C@H](N)C(=O)O; Tic = O=C(O)[C@@H]1Cc2ccccc2CN1
Property: GPI ED50

Task: Query: GPI ED50; subject: H-[Dmt]-[Tic]-OH (also: (R,S)-Dmt, racemic, mixture of diastereomers) [H-(R,S)Dmt-Tic-OH]
Output: > 10 µM

Task: Query: GPI ED50; subject: {des‑NH2‑α‑pyrrolidine‑1‑yl}-[Dmt]-[Tic]-OH [[des-NH2-α-pyrrolidine-1-yl]-Dmt-Tic-OH]
Output: > 10 µM

Task: Query: GPI ED50; subject: {des‑NH2‑α‑piperidine‑1‑yl}-[Dmt]-[Tic]-OH [[des-NH2-α-piperidine-1-yl]-Dmt-Tic-OH]
Output: > 10 µM
